# System: CEM-SS
# Method description: Inhibitory activity against cytopathic effect of VIHU(NSI) clinical isolate in CEM-SS cells.
# Assay type: functional, cell-based
# Study conditions: Homo sapiens
Experimental endpoint: EC50

Compound	Experimental endpoint	Endpoint result
CC(C)CCCC(C)[C@H]1CC[C@H]2[C@@H]3CCC4C[C@@H](CCC=C(c5cc(Cl)c(O)c(C(=O)O)c5)c5cc(Cl)c(O)c(C(=O)O)c5)CC[C@]4(C)[C@H]3CC[C@]12C (stereo partly specified)	EC50	80.2 µM

----------
# Tested on: CEM-SS
# Method description: Inhibitory activity against cytopathic effect of HIV-IIIB strain in CEM-SS cells.
# Type: functional, cell-based
# Study conditions: Homo sapiens
pEC50: −log10 of the molar value.
Experimental endpoint: pEC50

Compound	Endpoint result
CC(C)CCCC(C)[C@H]1CC[C@H]2[C@@H]3CCC4C[C@@H](CCC=C(c5cc(Cl)c(O)c(C(=O)O)c5)c5cc(Cl)c(O)c(C(=O)O)c5)CC[C@]4(C)[C@H]3CC[C@]12C (stereo partly specified)	5.47

Where these numbers come from: ChEMBL document CHEMBL1130780
